B1: PPEF2 (parent)
chain: DHSGFISLDEFRQTWKLFSSHMNI

Variants of: B1
Procedure summary: protein stability index of a GFP-peptide fusion (GPS, HEK-293T) (PSI 1-6); higher = more stable;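 further: lentivirally expressed fusions sorted by FACS into six bins by GFP to DsRed ratio, PSI derived from sequencing read proportions per bin multiplied by bin number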
Condition summary: c terminus: a fixed tail appended
Listed next: entries and their corresponding protein stability index.
Quantity kind: protein stability index

1) Q13N 2.65
2) L17D 2.27
3) S19Y 1.7
4) G4L 2.95
5) I24N 1.8
6) H2M 3.51
7) D1H 1.38
8) E10N 2.85
9) G4E 2.16
10) Q13L 3.59
11) W15T 2.58
12) D9M 2.67
13) I24C 1.55
14) N23E 2.82
15) S3V 1.46
16) R12W 2.39
17) K16Q 1.74
18) I24D 1.96
19) S3I 1.84
20) T14E 1.87
21) S7N 2.06
22) W15Y 2.15
